Task for the reader: assign each of the following compounds its reported LD50.
Test system: mice
ASSAY SUMMARY: acute toxicity (LD50), intraperitoneal route in mice
Format: in vivo
PARTICULARS: Table 2

Inquiry: Give reported LD50 value for C=CC(C)(O)CCC=C(C)CCC=C(C)CCC=C(C)CCC=C(C)CCC=C(C)CCC=C(C)CCC=C(C)CCC=C(C)CCC=C(C)C (stereo not shown) [Isodecaprenol]
Reply text: > 4000 mg/kg

Inquiry: Give reported LD50 value for CC(C)=CCC/C(C)=C/CC/C(C)=C/CC/C(C)=C/CC/C(C)=C/CC/C(C)=C/CC/C(C)=C/CC/C(C)=C/CC/C(C)=C/CO [Solanesol]
Reply text: > 4000 mg/kg

Inquiry: Give reported LD50 value for CC(C)=CCCC(C)=CCCC(C)=CCCC(C)=CCCC(C)=CCCC(C)=CCCC(C)=CCCC(C)=CCCC(C)=CCCC(C)=CCCC(=O)OCC=C(C)CCC=C(C)CCC=C(C)CCC=C(C)CCC=C(C)CCC=C(C)CCC=C(C)CCC=C(C)CCC=C(C)CCC=C(C)C [Decaprenyl decaprenylacetate]
Reply text: > 5000 mg/kg

Inquiry: Give reported LD50 value for CC(C)CCCC(C)CCCC(C)CCCC(C)CCCC(C)CCCC(C)CCCC(C)CCCC(C)CCCC(C)CCCC(C)CCO (stereo not shown) [Saturated decaprenol]
Reply text: > 5000 mg/kg
